Origin of measurements: PubChem BioAssay AID1963866

Tested on: PDC KRAS tumor spheroids with HUVEC/MSC, viability
METHOD NOTES: Anticancer human tumor 349418-098-R-PDC patient-derived lung adenocarcinoma cell line growth inhibition [KRAS2]; active means viability on the fitted dose curve at most 10% of control; inactive means the rest
MEASUREMENT SETUP: second compound 3.16 µM; first compound 0.1 µM
I would appreciate it if you answered using one of these outcomes: active, inactive

Would you please look over these solved cases?
compound="CCNC(=O)CC1N=C(c2ccc(Cl)cc2)c2cc(OC)ccc2-n2c(C)nnc21 (stereo not drawn) + COc1cc2nc(C)nc(NC(C)c3cc(N)cc(C(F)(F)F)c3)c2cc1OC1CCOC1" category_label=inactive
compound="COc1cc(Nc2ncc3c(n2)-c2ccc(Cl)cc2C(c2c(F)cccc2OC)=NC3)ccc1C(=O)O + CNCc1ccccc1-c1csc(C(C)Nc2nc(C)nc3cc(OC)c(OC)cc23)c1" category_label=active

Alright, here's another compound for you.
query: Call for entry CCNC(=O)CC1N=C(c2ccc(Cl)cc2)c2cc(OC)ccc2-n2c(C)nnc21 (stereo not drawn) + C=CC(=O)N1CCN(c2nc(OCC3CCCN3C)nc3c2CCN(c2cccc4cccc(C)c24)C3)CC1CC#N :
result: active

---

System: PDC KRAS tumor spheroids with HUVEC/MSC, viability
METHOD NOTES: Anticancer human tumor 349418-098-R-PDC cell line growth inhibition [KRAS2];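 further: spheroids exposed to compounds for seven days before readout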
MEASUREMENT SETUP: second compound 10 µM; first compound 0.01 µM; hits give low values
ASSAY METRIC: viability, T/C (%)
Give bare numbers, in %.

Some solved entries appear below for comparison.
molecule="CC(C)n1nc(-c2ccc3oc(N)nc3c2)c2c(N)ncnc21 + CNCc1ccccc1-c1csc(C(C)Nc2nc(C)nc3cc(OC)c(OC)cc23)c1" assay_metric="viability, T/C" measurement=0.09
molecule="Cn1ncnc1[C@H]1c2n[nH]c(=O)c3cc(F)cc(c23)N[C@@H]1c1ccc(F)cc1 + CNCc1ccccc1-c1csc(C(C)Nc2nc(C)nc3cc(OC)c(OC)cc23)c1" assay_metric="viability, T/C" measurement=0.07
molecule="CN(C)C/C=C/C(=O)Nc1cc2c(Nc3ccc(F)c(Cl)c3)ncnc2cc1O[C@H]1CCOC1 + COc1cc2nc(C)nc(NC(C)c3cc(N)cc(C(F)(F)F)c3)c2cc1OC1CCOC1" assay_metric="viability, T/C" measurement=78.8

Hi team, please reply with viability, T/C for each item in this list.
1. Cn1ncnc1[C@H]1c2n[nH]c(=O)c3cc(F)cc(c23)N[C@@H]1c1ccc(F)cc1 + C=CC(=O)N1CCN(c2nc(=O)n(-c3c(C)ccnc3C(C)C)c3nc(-c4c(O)cccc4F)c(F)cc23)C(C)C1
2. CCN1CCN(Cc2ccc(Nc3ncc(F)c(-c4cc(F)c5nc(C)n(C(C)C)c5c4)n3)nc2)CC1 + CC1OCC2(CCN(c3cnc(Sc4ccnc(N)c4Cl)c(N)n3)CC2)C1N

result:
1: 29.1; 2: 36.7

---

Test system: PDC KRAS tumor spheroids with HUVEC/MSC, viability
METHOD NOTES: Anticancer human tumor 349418-098-R-PDC cell line growth inhibition [KRAS2];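 further: spheroids exposed to compounds for seven days before readout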
MEASUREMENT SETUP: second compound 3.16 µM; first compound 0.1 µM; hits give low values
ASSAY METRIC: viability, T/C (%)
Give bare numbers, in %.

Please give viability, T/C, item by item, for the list that follows.
1. CCN1CCN(Cc2ccc(Nc3ncc(F)c(-c4cc(F)c5nc(C)n(C(C)C)c5c4)n3)nc2)CC1 + C=CC(=O)N1CCN(c2nc(OCC3CCCN3C)nc3c2CCN(c2cccc4cccc(C)c24)C3)CC1CC#N
2. Cn1ncnc1[C@H]1c2n[nH]c(=O)c3cc(F)cc(c23)N[C@@H]1c1ccc(F)cc1 + C=CC(=O)N1CCN(c2nc(OCC3CCCN3C)nc3c2CCN(c2cccc4cccc(C)c24)C3)CC1CC#N
3. O=C(c1cc(Cc2n[nH]c(=O)c3ccccc23)ccc1F)N1CCN(C(=O)C2CC2)CC1 + CNCc1ccccc1-c1csc(C(C)Nc2nc(C)nc3cc(OC)c(OC)cc23)c1

result:
0.08
0.18
0.21
